Test system: rabbit skeletal myofibrils (approximately 90% fast fibers)
test-protocol: Activation of fast skeletal myofibrils (PUMA coupled-enzyme ATPase assay at pCa25)
Format: biochemical
measurement-setup: concentration at which the compound increased the enzymatic activity by 40%; calcium at pCa25; PM12 buffer pH 6.8
recorded-metric: Mean AC1.4

Solved entries:
compound: NCc1cnc(-c2cnc(NCC3(c4ncccc4Cl)CCC3)nc2)s1
measured: B (B=1-10 uM)
--
compound: NC(=O)c1ccn(-c2cnc(NC[C@]3(c4ncccc4F)C[C@H](F)C3)nc2)c1
measured: A (A=<1 uM)
--
compound: NC(=O)c1cc(-c2cnc(NC3(c4ccc(F)cc4)CCC3)nc2)ccn1
measured: B (B=1-10 uM)
--
compound: CC(C)(Nc1ncc(-c2csc(C(N)=O)n2)cn1)c1ncccc1Cl
measured: C (C=10-20 uM)
--
compound: N#Cc1ccc2nc(NC3(c4ncccc4F)CCC3)ncc2c1
measured: D (D=>20 uM)
--
compound: NC(=O)c1ccc(F)c(-c2cnc(NCC3(c4ncccc4F)CC(F)C3)nc2)c1 (stereo not drawn)
measured: A (A=<1 uM)
--
compound: NC(=O)c1ccc(F)cc1-c1cnc(NC[C@]2(c3ncccc3F)C[C@H](F)C2)nc1
measured: B (B=1-10 uM)
--
compound: CC(C)(Nc1ncc(-c2nc(CNC(=O)[C@@H]3CCCN3)cs2)cn1)c1ncccc1F
measured: D (D=>20 uM)
--
compound: NC(=O)c1cnc(NC2(c3ccc(F)cc3)CCC2)nc1
measured: D (D=>20 uM)
--
compound: CC(C)(Nc1ncc(-c2ncc(CNC(=O)c3cnc[nH]3)s2)cn1)c1ncccc1F
measured: D (D=>20 uM)

### Prompt Please report the recorded Mean AC1.4 for O=C(Nc1cccc(F)c1)c1cnc(NCC2(c3ncccc3F)CCC2)nc1 .
### Response D (D=>20 uM)

Source listed as patent US11369565B2.
